Measured values drawn from patent US20210087281A1 for this set.

molecular target: native human MET on living cells (human, UniProt P08581 25-1390); test: cell-based or functional assay
Sequence (P08581 25-1390): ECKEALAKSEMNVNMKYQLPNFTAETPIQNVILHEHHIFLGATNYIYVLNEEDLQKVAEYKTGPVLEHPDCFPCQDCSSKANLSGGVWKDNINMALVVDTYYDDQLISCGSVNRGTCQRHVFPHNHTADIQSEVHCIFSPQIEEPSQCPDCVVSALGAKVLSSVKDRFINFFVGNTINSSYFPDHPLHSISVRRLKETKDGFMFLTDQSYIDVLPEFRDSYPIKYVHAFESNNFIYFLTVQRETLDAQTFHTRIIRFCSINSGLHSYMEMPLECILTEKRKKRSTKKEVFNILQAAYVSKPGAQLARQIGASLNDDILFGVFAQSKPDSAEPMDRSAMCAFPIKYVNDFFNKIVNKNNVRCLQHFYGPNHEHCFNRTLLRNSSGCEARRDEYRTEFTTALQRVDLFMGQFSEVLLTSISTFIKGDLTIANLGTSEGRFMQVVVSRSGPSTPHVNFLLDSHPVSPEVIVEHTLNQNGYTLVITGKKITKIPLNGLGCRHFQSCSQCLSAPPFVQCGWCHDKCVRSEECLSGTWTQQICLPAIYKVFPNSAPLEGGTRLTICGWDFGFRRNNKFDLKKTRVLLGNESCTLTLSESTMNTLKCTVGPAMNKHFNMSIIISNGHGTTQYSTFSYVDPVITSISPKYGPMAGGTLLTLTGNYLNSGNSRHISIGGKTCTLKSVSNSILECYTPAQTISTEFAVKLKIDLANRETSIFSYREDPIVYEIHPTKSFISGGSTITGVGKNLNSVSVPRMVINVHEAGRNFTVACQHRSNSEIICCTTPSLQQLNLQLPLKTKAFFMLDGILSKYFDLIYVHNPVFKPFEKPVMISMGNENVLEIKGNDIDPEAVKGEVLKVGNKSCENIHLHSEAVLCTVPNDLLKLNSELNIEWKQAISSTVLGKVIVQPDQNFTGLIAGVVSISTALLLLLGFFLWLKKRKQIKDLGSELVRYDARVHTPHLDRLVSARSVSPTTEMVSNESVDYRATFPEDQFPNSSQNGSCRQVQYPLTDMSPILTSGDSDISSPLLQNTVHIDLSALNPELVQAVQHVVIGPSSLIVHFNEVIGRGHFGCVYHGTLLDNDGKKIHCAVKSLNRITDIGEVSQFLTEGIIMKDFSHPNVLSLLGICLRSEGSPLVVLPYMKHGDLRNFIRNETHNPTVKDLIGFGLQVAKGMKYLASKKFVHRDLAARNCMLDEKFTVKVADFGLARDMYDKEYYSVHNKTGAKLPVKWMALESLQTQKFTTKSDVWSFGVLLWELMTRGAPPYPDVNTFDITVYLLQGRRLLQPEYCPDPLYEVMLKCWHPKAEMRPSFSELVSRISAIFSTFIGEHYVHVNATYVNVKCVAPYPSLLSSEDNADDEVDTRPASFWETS
Property: phospho-MET ELISA EC50, A549 cells (nM)
Give bare numbers, in nM.

Below are worked cases with known answers.
1. 71D6 chimeric llama-human IgG1 mAb (antibody, V domains shown, llama VH on human IgG1 CH1-CH2-CH3, llama VL on human lambda CL) VH: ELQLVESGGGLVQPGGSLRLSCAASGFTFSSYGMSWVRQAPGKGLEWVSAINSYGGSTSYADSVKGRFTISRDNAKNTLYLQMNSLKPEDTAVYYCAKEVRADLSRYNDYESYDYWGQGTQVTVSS VL: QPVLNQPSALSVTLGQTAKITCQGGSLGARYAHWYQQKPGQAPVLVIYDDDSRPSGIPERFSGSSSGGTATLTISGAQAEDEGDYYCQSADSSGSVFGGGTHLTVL ... 0.32
2. 74C8 chimeric llama-human IgG1 mAb (antibody, V domains shown, llama VH on human IgG1 CH1-CH2-CH3, llama VL on human lambda CL) VH: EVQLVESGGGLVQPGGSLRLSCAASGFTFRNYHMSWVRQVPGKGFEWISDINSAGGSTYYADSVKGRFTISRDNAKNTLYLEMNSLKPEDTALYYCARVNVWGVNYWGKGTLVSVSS VL: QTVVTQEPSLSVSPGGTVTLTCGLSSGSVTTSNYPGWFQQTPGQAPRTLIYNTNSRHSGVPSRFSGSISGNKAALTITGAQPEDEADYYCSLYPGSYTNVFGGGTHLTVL ... 0.52

Working through the 3 binders below one at a time, give phospho-MET ELISA EC50, A549 cells for each.
1. 71G12 chimeric llama-human IgG1 mAb (antibody, V domains shown, llama VH on human IgG1 CH1-CH2-CH3, llama VL on human kappa CL) VH: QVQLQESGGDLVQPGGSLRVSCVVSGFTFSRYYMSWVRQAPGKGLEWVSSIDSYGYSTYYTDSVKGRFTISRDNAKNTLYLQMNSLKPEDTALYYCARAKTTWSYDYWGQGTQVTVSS VL: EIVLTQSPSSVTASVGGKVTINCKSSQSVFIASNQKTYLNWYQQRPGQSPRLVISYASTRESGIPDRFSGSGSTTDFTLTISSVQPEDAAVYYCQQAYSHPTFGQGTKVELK
2. 71G2 chimeric llama-human IgG1 mAb (antibody, V domains shown, llama VH on human IgG1 CH1-CH2-CH3, llama VL on human lambda CL) VH: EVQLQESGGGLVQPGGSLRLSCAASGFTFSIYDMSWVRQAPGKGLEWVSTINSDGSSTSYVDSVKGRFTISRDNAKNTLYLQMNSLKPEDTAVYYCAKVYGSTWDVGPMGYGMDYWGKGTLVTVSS VL: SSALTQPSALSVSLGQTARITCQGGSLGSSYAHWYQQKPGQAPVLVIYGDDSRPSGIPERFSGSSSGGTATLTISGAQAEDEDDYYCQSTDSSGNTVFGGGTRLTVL
3. 76G7 chimeric llama-human IgG1 mAb (antibody, V domains shown, llama VH on human IgG1 CH1-CH2-CH3, llama VL on human lambda CL) VH: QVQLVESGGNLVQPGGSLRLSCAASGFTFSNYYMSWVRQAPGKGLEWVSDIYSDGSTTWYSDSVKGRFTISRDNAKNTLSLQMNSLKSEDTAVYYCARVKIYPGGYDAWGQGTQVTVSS VL: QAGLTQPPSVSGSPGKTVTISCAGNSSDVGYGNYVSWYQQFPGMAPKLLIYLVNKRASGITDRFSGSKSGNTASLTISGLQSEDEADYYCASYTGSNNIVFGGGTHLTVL

Output:
1: 2.48; 2: 0.37; 3: 1.86
